test: NCI Yeast Anticancer Drug Screen. Data for the mec2-1 strain (AID 157); details: S. cerevisiae mec2-1 strain, at 50.0 µM, stronger effect = higher value
The panel holds about 79,000 compounds, 15% with a hit somewhere; the sample as a whole holds those more often. Activity calls are given as the source filed them. No stated cut-off is given here; in the data, active means growth inhibition above about 70%; inactive means the rest.
Items are presented alongside their recorded growth inhibition.
REPORTED PROPERTY: growth inhibition

>  <COMPOUND>
Cc1nc(C(N)=S)sc1C(=O)/C=C/c1c(O)ccc2ccccc12

>  <REPORTED PROPERTY>
growth inhibition

>  <RESULT>
9.55% (inactive)

$$$$
>  <COMPOUND>
CN1N=C(c2ccncc2)OC1c1ccc(C(F)(F)F)cc1 (stereo unspecified)

>  <REPORTED PROPERTY>
growth inhibition

>  <RESULT>
-20.6% (inactive)

$$$$
>  <COMPOUND>
CC(=O)OC1(C(=O)OCC2CCCO2)CCCC1 (stereo unspecified)

>  <REPORTED PROPERTY>
growth inhibition

>  <RESULT>
5.4% (inactive)

$$$$
>  <COMPOUND>
OC1C(O)C2CC1C1C2C2(Cl)CC1(Cl)C(Cl)=C2Cl (stereo unspecified)

>  <REPORTED PROPERTY>
growth inhibition

>  <RESULT>
-1.55% (inactive)

$$$$
>  <COMPOUND>
CC(=O)NCC1CCCO1 (stereo unspecified)

>  <REPORTED PROPERTY>
growth inhibition

>  <RESULT>
-18.6% (inactive)

$$$$
>  <COMPOUND>
O=c1[nH]c2nc3ccccc3c(=O)n2/c1=C/c1ccco1

>  <REPORTED PROPERTY>
growth inhibition

>  <RESULT>
16.8% (inactive)

$$$$
>  <COMPOUND>
C/C=C(\C)C(C#N)(CCCC)C(=O)OCC (stereo unspecified)

>  <REPORTED PROPERTY>
growth inhibition

>  <RESULT>
-17.2% (inactive)

$$$$
>  <COMPOUND>
c1ccc(OC23CC4CC(CC(C4)C2)C3)cc1

>  <REPORTED PROPERTY>
growth inhibition

>  <RESULT>
-5% (inactive)

$$$$
>  <COMPOUND>
CCCCC(CC)COC(=O)C(C)CCC (stereo unspecified)

>  <REPORTED PROPERTY>
growth inhibition

>  <RESULT>
-1.1% (inactive)

$$$$
>  <COMPOUND>
Nc1nc2c(ncn2Cc2ccc(Cl)c(Cl)c2)c(=O)[nH]1

>  <REPORTED PROPERTY>
growth inhibition

>  <RESULT>
-7.4% (inactive)

$$$$
>  <COMPOUND>
CC(=O)c1ccc(OCc2ccccc2)c(OCc2ccccc2)c1

>  <REPORTED PROPERTY>
growth inhibition

>  <RESULT>
0.8% (inactive)

$$$$
>  <COMPOUND>
O=[N+]([O-])c1ccccc1SSc1ccccc1[N+](=O)[O-]

>  <REPORTED PROPERTY>
growth inhibition

>  <RESULT>
-15.6% (inactive)

$$$$
>  <COMPOUND>
NC(=O)COC(=O)c1c(Cl)nc2sccn12

>  <REPORTED PROPERTY>
growth inhibition

>  <RESULT>
5.1% (inactive)

$$$$
>  <COMPOUND>
Oc1ccccc1-c1nnc2n1N=C(c1ccc(-c3ccccc3)cc1)CS2

>  <REPORTED PROPERTY>
growth inhibition

>  <RESULT>
-12.3% (inactive)

$$$$
>  <COMPOUND>
COc1ccc(NC2=CC(=O)C(=O)c3ccccc32)nn1

>  <REPORTED PROPERTY>
growth inhibition

>  <RESULT>
4.8% (inactive)

$$$$
>  <COMPOUND>
O=c1[nH]c(-c2ccc(-c3nc4cc([N+](=O)[O-])ccc4c(=O)[nH]3)cc2)nc2cc([N+](=O)[O-])ccc12

>  <REPORTED PROPERTY>
growth inhibition

>  <RESULT>
-13.8% (inactive)

$$$$
>  <COMPOUND>
COc1cccc(NC(=O)CSc2nnc(Cc3ccccc3)o2)c1

>  <REPORTED PROPERTY>
growth inhibition

>  <RESULT>
-11.9% (inactive)

$$$$
>  <COMPOUND>
NC1C2C3C=CC(C3)C12 (stereo unspecified)

>  <REPORTED PROPERTY>
growth inhibition

>  <RESULT>
-3.85% (inactive)

$$$$
>  <COMPOUND>
NCCNc1ncnc2ccccc12

>  <REPORTED PROPERTY>
growth inhibition

>  <RESULT>
16.1% (inactive)

$$$$
>  <COMPOUND>
NS(=O)(=O)c1ccc(Nc2c3ccccc3nc3cc(Cl)ccc23)cc1

>  <REPORTED PROPERTY>
growth inhibition

>  <RESULT>
-17.8% (inactive)

$$$$
>  <COMPOUND>
COc1cccc2cc(C(C)=O)c(=O)oc12

>  <REPORTED PROPERTY>
growth inhibition

>  <RESULT>
-5.35% (inactive)

$$$$
>  <COMPOUND>
COc1ccc2[nH]cc(C(=O)C(=O)NC34CC5CC(CC(C5)C3)C4)c2c1

>  <REPORTED PROPERTY>
growth inhibition

>  <RESULT>
6% (inactive)

$$$$
>  <COMPOUND>
COc1cccc(/C=N/[N-]C(N)=O)c1[O-].[OH3+].[Pd+2]

>  <REPORTED PROPERTY>
growth inhibition

>  <RESULT>
8.2% (inactive)

$$$$
>  <COMPOUND>
ClCC1OC1CCl (stereo unspecified)

>  <REPORTED PROPERTY>
growth inhibition

>  <RESULT>
3.05% (inactive)

$$$$
>  <COMPOUND>
O=S1(=O)C(Cl)c2ccccc2-c2ccccc2C1Cl (stereo unspecified)

>  <REPORTED PROPERTY>
growth inhibition

>  <RESULT>
-6.65% (inactive)

$$$$
>  <COMPOUND>
Cc1ccc(S(=O)(=O)CO)cc1

>  <REPORTED PROPERTY>
growth inhibition

>  <RESULT>
-3.2% (inactive)

$$$$
